Taken from patent US8877741B2.

Lab note: IC50 readings collected with human ACC2 (Homo sapiens (Human), UniProt O00763) for the following compounds.
Sequence (O00763 129-2458): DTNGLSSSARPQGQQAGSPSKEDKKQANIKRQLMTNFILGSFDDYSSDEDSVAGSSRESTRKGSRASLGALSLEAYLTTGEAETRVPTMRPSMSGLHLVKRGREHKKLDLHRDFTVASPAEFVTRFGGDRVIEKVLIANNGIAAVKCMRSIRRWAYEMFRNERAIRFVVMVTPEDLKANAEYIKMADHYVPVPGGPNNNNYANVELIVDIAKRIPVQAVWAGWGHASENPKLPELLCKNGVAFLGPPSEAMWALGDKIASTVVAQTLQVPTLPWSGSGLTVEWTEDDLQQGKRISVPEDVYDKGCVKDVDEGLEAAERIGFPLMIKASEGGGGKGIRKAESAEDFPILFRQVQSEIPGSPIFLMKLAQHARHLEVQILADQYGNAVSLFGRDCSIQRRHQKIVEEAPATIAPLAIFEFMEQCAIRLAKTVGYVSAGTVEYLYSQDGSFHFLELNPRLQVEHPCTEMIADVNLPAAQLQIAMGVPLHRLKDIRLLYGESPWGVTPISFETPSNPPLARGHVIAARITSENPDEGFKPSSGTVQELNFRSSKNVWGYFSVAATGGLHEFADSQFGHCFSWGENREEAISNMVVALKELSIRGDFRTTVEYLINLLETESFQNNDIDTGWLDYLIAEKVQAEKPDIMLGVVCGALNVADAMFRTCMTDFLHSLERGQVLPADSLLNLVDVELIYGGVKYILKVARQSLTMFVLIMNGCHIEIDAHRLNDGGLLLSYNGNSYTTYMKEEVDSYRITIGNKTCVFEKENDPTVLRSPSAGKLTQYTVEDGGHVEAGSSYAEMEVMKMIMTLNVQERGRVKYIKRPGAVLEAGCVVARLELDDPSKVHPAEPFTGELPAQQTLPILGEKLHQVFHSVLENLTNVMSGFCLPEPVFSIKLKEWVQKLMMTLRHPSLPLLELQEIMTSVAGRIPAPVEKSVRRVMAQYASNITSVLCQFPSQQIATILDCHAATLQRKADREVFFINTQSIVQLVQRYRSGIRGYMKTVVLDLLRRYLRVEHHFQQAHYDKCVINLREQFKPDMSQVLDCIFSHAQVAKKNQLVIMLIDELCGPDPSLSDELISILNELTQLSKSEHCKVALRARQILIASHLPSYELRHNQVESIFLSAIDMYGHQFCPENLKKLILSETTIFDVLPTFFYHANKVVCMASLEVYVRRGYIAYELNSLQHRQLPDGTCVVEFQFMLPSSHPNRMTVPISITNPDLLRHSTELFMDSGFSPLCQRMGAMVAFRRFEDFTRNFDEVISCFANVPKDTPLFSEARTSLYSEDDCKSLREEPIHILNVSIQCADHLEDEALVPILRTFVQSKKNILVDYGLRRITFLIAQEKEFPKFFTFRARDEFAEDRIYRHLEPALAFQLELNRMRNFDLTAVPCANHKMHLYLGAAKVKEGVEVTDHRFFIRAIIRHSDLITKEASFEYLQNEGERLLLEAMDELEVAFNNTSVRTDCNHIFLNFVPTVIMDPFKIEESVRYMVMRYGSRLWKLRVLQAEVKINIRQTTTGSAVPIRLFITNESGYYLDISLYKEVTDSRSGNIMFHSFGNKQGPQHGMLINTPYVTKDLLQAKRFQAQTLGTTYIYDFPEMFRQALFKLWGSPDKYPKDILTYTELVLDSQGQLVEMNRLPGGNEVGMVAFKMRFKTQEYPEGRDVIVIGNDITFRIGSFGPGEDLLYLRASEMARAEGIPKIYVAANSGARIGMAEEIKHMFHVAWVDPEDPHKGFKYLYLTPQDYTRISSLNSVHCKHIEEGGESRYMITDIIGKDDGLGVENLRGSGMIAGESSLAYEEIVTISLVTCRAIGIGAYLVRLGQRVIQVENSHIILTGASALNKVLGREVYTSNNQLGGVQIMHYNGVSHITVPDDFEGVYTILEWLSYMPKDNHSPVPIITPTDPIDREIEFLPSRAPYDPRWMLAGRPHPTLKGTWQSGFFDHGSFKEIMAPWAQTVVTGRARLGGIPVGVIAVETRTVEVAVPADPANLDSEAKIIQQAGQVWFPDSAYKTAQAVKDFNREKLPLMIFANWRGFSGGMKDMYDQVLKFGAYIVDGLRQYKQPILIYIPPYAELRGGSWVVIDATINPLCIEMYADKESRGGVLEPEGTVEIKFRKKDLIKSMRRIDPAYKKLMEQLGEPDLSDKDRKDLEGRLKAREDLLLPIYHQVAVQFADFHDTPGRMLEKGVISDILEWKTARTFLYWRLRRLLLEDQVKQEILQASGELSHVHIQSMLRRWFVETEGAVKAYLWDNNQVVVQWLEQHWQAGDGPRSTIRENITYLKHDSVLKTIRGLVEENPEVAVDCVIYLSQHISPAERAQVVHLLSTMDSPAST
Field: numeric (nM). Do not append units.

Use the examples below as a reference point.
CCC(=O)N[C@@H](C)c1ccc(OC2CCN(c3ccnc(OC(C)C)c3)C2)cc1 (stereo partly shown) [Example 2.30]
455
CC(=O)N[C@@H](C)c1ccc(O[C@@H]2CCN(c3ccnc(OC4CCCCC4)c3)C2)cc1 [Example 9.7]
40

Sample CC(=O)N[C@@H](C)c1ccc(O[C@@H]2CCN(c3ccnc(OCC(C)(C)O)c3)C2)cc1 [Example 9.32] , system: human ACC2 (Homo sapiens (Human), UniProt O00763). Its IC50 is 305

Sample CCOc1ccnc(N2CC[C@@H](Oc3ccc([C@H](C)NC(C)=O)cc3)C2)c1F [Example 9.69] , system: human ACC2 (Homo sapiens (Human), UniProt O00763). Its IC50 is 603

Sample CC(=O)Nc1nc(C)c(C(=O)N[C@@H](C)c2ccc(O[C@@H]3CCN(c4ccc(OCC5CC5(F)F)cn4)C3)cc2)s1 (stereo partly shown) [Example 2.1] , system: human ACC2 (Homo sapiens (Human), UniProt O00763). Its IC50 is 25

---

# TESTED_ON: human ACC2 (Homo sapiens (Human))
Mark Yes for IC50 under 90 nM, No if at or over.

CC(=O)N[C@@H](C)c1ccc(O[C@@H]2CCN(c3cc(C(F)(F)F)ccn3)C2)cc1 [Example 8.7]
No
CC(=O)N[C@@H](C)c1ccc(O[C@@H]2CCN(c3ccc(OCCCF)cn3)C2)cc1 [Example 11.3]
No
CC(=O)N[C@@H](C)c1ccc(O[C@@H]2CCN(c3ccnc(NCC(C)(C)O)c3F)C2)cc1 [Example 10.53]
No

INPUT: Could you please tell me whether IC50 recorded for COc1c(N2CC[C@@H](Oc3ccc([C@H](C)NC(C)=O)cc3)C2)ccnc1OCC(F)F [Example 14.1] is less than 90 nM?
OUTPUT: Yes

INPUT: Could you please tell me whether IC50 recorded for C[C@H](NC(=O)c1cn[nH]c1)c1ccc(OC2CCN(c3ccc(OC[C@H]4CC4(F)F)cn3)C2)cc1 (stereo partly shown) [Example 2.93] is less than 90 nM?
OUTPUT: Yes

INPUT: Could you please tell me whether IC50 recorded for C[C@H](NC(=O)c1cn[nH]c1)c1ccc(OC2CCN(c3ccnc(OCC(F)F)c3)C2)cc1 (stereo partly shown) [Example 2.99] is less than 90 nM?
OUTPUT: Yes

---

Lab note: IC50 readings collected with human ACC2 (Homo sapiens (Human)) for the following compounds.
Field: numeric (nM). Do not append units.

Use the examples below as a reference point.
Cc1cc(CC(=O)N[C@@H](C)c2ccc(OC3CCN(c4ccnc(OC(C)C)c4)C3)cc2)on1 (stereo partly shown)
964
CC(=O)N[C@@H](C)c1ccc(OC2CCN(c3ncc(OCC(F)(F)F)cc3F)C2)cc1 (stereo partly shown)
504
CC(=O)N[C@@H](C)c1ccc(O[C@@H]2CCN(c3ccnc(N4CCC(C)(O)C4)c3F)C2)cc1 (stereo partly shown)
80

IC50 for CCNC(=O)N[C@@H](C)c1ccc(OC2CCN(c3ccc(OCC4CC4(F)F)cn3)C2)cc1 (stereo partly shown) is 150

---

Lab note: pIC50 readings collected with human ACC2 (Homo sapiens (Human), UniProt O00763) for the following compounds.
Please keep in mind that pIC50 is minus log10 of the molar concentration; only the number is needed.

CC(=O)N[C@@H](C)c1ccc(O[C@@H]2CCN(c3ccnc(OCC4CCOC4)c3)C2)cc1 (stereo partly shown) [Example 9.26]
6.90
CC(=O)N[C@@H](C)c1ccc(O[C@@H]2CCN(c3ccc(OCC4CC4)cn3)C2)cc1 [Example 1.96]
6.94
CC(=O)N[C@@H](C)c1ccc(O[C@@H]2CCN(c3ccnc(OCCC(C)C)c3)C2)cc1 [Example 9.34]
7.02
CC(=O)N[C@@H](C)c1ccc(O[C@@H]2CCN(c3ccnc(N4CCC4)c3F)C2)cc1 [Example 1.101]
7.04
CC(=O)N[C@@H](C)c1ccc(O[C@@H]2CCN(c3ccnc(N4CCOCC4)c3F)C2)cc1 [Example 10.15]
6.82
CO[C@@H]1CN(c2cccc(C(F)(F)F)n2)C[C@@H]1Oc1ccc([C@H](C)NC(C)=O)cc1 [Example 8.9]
6.98

As a next step, examine the compound that follows.
Sample CCN(CC)c1cccc(N2CC[C@@H](Oc3ccc([C@H](C)NC(C)=O)cc3)C2)n1 [Example 10.27] , system: human ACC2 (Homo sapiens (Human), UniProt O00763). Its pIC50 is 6.91

---

Lab note: IC50 readings collected with human ACC2 (Homo sapiens (Human), UniProt O00763) for the following compounds.
Field: numeric (µM). Do not append units.

Use the examples below as a reference point.
C[C@H](NC(=O)[C@@H](C)O)c1ccc(OC2CCN(c3ccnc(OCC4CC4)c3)C2)cc1 (stereo partly drawn) [Example 2.68]
0.265
CC(=O)N[C@@H](C)c1ccc(O[C@@H]2CCN(c3ccc(OC[C@H]4CC4(F)F)cn3)C2)cc1 [Example 1.118]
0.039
Cc1cccc(N2CC[C@@H](Oc3ccc([C@H](C)NC(=O)c4cncs4)cc3)C2)n1 [Example 1.85]
0.107
CC(=O)N[C@@H](C)c1ccc(O[C@@H]2CCN(c3nc(N4CCCC4)c(F)cc3F)C2)cc1 [Example 10.8]
0.594
Cc1nocc1C(=O)N[C@@H](C)c1ccc(OC2CCN(c3ccnc(OCC(F)F)c3)C2)cc1 (stereo partly drawn) [Example 2.95]
0.049

As a next step, examine the compound that follows.
Sample CC(=O)N[C@@H](C)c1ccc(O[C@@H]2CCN(c3ccnc(N(C)C)c3F)C2)cc1 [Example 10.17] , system: human ACC2 (Homo sapiens (Human), UniProt O00763). Its IC50 is 0.097

---

# TESTED_ON: human ACC2 (Homo sapiens (Human))
Mark y for IC50 under 400 nM, n if at or over.

Solved entries:
CC(=O)N[C@@H](C)c1ccc(O[C@@H]2CCN(c3ccnc(OCC4CC4(F)F)c3C)C2)cc1 (stereo partly drawn)
y
CC(=O)N[C@@H](C)c1ccc(O[C@@H]2CCN(c3ccnc(O[C@@H]4CCC[C@@H]4O)c3)C2)cc1
n
CC(C)Oc1cc(N2CCC(Oc3ccc([C@H](C)NC(=O)c4cncs4)cc3)C2)ccn1 (stereo partly drawn)
y
Cc1nc(N)sc1C(=O)N[C@@H](C)c1ccc(O[C@@H]2CCN(c3ccc(OCC4CC4(F)F)cn3)C2)cc1 (stereo partly drawn)
y
CC(=O)N[C@@H](C)c1ccc(OC2CCN(c3ccc(OCCC4CC4)cn3)C2)cc1 (stereo partly drawn)
y
CC(=O)N[C@@H](C)c1ccc(O[C@@H]2CCN(c3cccc(N(C)CC(F)F)n3)C2)cc1
y
CC(=O)N[C@@H](C)c1ccc(O[C@@H]2CCN(c3ccc(OCC(F)F)cn3)C2)cc1
n
CC(=O)N[C@@H](C)c1ccc(O[C@@H]2CCN(c3cccc(N(C)C4CCOCC4)n3)C2)cc1
y

Shifting focus to the compound that follows.
INPUT: Could you please tell me whether IC50 recorded for C[C@H](NC(=O)c1cnn(C)c1N)c1ccc(OC2CCN(c3ccnc(OCC4CC4)c3)C2)cc1 (stereo partly drawn) is less than 400 nM?
OUTPUT: y

---

Attribute: IC50
# TESTED_ON: human ACC2 (Homo sapiens (Human))
Field: numeric (µM). Do not append units.

Use the examples below as a reference point.
CC(=O)N[C@@H](C)c1ccc(O[C@@H]2CCN(c3ccnc(N4CCCC4)c3C)C2)cc1
0.402
CC(=O)N[C@@H](C)c1ccc(O[C@@H]2CCN(c3ncc(C(F)(F)F)cc3F)C2)cc1
0.755

Sample CC(=O)N[C@@H](C)c1ccc(OC2CCN(c3ncc(OCC4CC4)cc3F)C2)cc1 (stereo partly drawn) , system: human ACC2 (Homo sapiens (Human)). Its IC50 is 0.137

---

Attribute: pIC50
# TESTED_ON: human ACC2 (Homo sapiens (Human), UniProt O00763)
Please keep in mind that pIC50 is minus log10 of the molar concentration; only the number is needed.

Use the examples below as a reference point.
CC(=O)N[C@@H](C)c1ccc(OC2CCN(c3cccc(C)n3)C2)cc1 (stereo partly drawn)
6.78
CCCOc1ccc(N2CCC(Oc3ccc([C@H](C)NC(C)=O)cc3)C2)cn1 (stereo partly drawn)
6.71
COCCN(C)c1nccc(N2CC[C@@H](Oc3ccc([C@H](C)NC(C)=O)cc3)C2)c1F
7.16
CCOc1ccc(N2CCC(Oc3ccc([C@H](C)NC(C)=O)cc3)C2)cn1 (stereo partly drawn)
6.29
C[C@H](NC(=O)c1cncs1)c1ccc(OC2CCN(c3ccc(OCC4CC4(F)F)cn3)C2)cc1 (stereo partly drawn)
7.26

As a next step, examine the compound that follows.
Sample `CC(=O)N[C@@H](C)c1ccc(O[C@@H]2CCN(c3cccc(N4CCC4)n3)C2)cc1` , system: human ACC2 (Homo sapiens (Human), UniProt O00763). Its pIC50 is 6.68
